From: paper PMC7169973

The entries below are paired with their reported Kd.
SYSTEM_NAME: T1, 14-3-3σ, full-length, recombinant (human, UniProt P31947 1-248)
T1 sequence (looked up): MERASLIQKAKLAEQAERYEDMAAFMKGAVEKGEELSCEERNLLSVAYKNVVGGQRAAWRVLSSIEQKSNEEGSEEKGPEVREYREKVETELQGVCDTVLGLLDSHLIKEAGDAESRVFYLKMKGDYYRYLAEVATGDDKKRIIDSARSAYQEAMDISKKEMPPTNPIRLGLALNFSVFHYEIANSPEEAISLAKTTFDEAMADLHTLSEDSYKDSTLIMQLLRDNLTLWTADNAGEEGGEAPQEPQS
ASSAY_COMMENT: fluorescence polarisation
Where no end group is shown, it is not given here. [ ]: non-standard residue; d: D form. pT = C[C@@H](OP(=O)(O)O)[C@H](N)C(=O)O; FAM = fluorescein
API: value field is a number in µM; no unit string.

{FAM}-KYYITGEAEGFPA[pT]A (peptide, UniProt P03372 581-595, looked up) [N-FAM-2 variant with C-terminal residue A] :: 19.9

INPUT: If you can, please state the reported Kd value of {FAM}-KYYITGEAEGFPA[pT]T (peptide, UniProt P03372 581-595, looked up) [N-FAM-2 variant with C-terminal residue T] .
OUTPUT: 50

INPUT: Again, but for {FAM}-KYYITGEAEGFPA[pT]D (peptide, UniProt P03372 581-595, looked up) [N-FAM-2 variant with C-terminal residue D]
OUTPUT: 173

INPUT: Again, but for {FAM}-KYYITGEAEGFPA[pT]G (peptide, UniProt P03372 581-595, looked up) [N-FAM-2 variant with C-terminal residue G]
OUTPUT: 144
